# SYSTEM_NAME: human P2X3 receptor (Homo sapiens)
# Construct: expressed in transfected cells; host or cells: Xenopus oocytes (cRNA injected); cDNA from the Max-Planck Institute laboratory (Dr. W. Stuhmer and Dr. F. Soto)
# Sequence (P56373 whole entry): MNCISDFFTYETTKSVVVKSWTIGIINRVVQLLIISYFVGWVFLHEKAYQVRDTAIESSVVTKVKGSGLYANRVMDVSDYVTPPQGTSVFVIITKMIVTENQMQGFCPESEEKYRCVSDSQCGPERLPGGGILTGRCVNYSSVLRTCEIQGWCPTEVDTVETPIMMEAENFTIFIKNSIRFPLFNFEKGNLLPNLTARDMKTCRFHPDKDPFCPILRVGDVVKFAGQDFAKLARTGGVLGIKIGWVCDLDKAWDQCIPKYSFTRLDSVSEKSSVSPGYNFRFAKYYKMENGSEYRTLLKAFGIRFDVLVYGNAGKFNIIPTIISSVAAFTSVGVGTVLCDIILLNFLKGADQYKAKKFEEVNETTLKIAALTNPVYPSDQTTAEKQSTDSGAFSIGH
# TEST_DESCRIPTION: Two-electrode voltage clamp, ATP-induced ion current in Xenopus oocytes expressing human P2X3
# Format: cell-based
# MEASUREMENT_PARAMETERS: concentration-inhibitory curve, 2 μM ATP; read-out: IC50 value (FIG. 1C)
pIC50: −log10 of the molar value.
Entries and their pIC50
PROPERTY_MEASURED: pIC50

1. Cc1nc(N=Nc2cc(S(=O)(=O)O)ccc2S(=O)(=O)O)c(CCC(=O)O)c(C=O)c1O [Compound 24]    6.98
2. Cc1nc(N=Nc2ccc(C(=O)O)cc2)c(CCC(=O)O)c(C=O)c1O [Compound 28]    7.10
